- Test system: SH-SY5Y cells
- Assay Text: MTT cell viability assay
- Format: cell-based, human
- Experimental Parameters: Homo sapiens; neurotoxic concentration, SH-SY5Y
- Description: The MTT test is based on the observation that live cells can reduce the water-soluble yellow tetrazolium salt [3-(4,5-dimethylthiazol-2-yl)-2,5-diphenyltetrazolium bromide] into water-insoluble blue/magenta formazan crystals, by dehydrogenase of the active mitochondria. Dissolved formazan crystals can be quantified using a spectrophotometer and the values obtained are in direct correlation to the number of metabolically active cells. […]
Recorded Metric: IC50

Could you tell me which IC50 is on file for `O=C(OCCc1ccc(O)c(O)c1)C1CCN(Cc2ccccc2)CC1` ?
50 µM

Could you tell me which IC50 is on file for `CC(=O)Oc1ccc(CCOC(=O)C2CCN(Cc3ccccc3)CC2)cc1` ?
> 10 µM

Could you tell me which IC50 is on file for `O=C(OCCc1cc(O)c(O)cc1[N+](=O)[O-])C1CCN(Cc2ccccc2)CC1` ?
> 50 µM

Could you tell me which IC50 is on file for `CC(=O)Oc1ccc(CCOC(=O)C2CCN(Cc3ccccc3)CC2)cc1OC(C)=O` ?
> 50 µM

Could you tell me which IC50 is on file for `O=C(OCCc1ccc(O)cc1)C1CCN(Cc2ccccc2)CC1` ?
> 25 µM

Could you tell me which IC50 is on file for `COc1cc(CCOC(=O)C2CCN(Cc3ccccc3)CC2)ccc1O` ?
> 25 µM

Could you tell me which IC50 is on file for `COc1cc(CCOC(=O)C2CCN(Cc3ccccc3)CC2)ccc1OC(C)=O` ?
> 10 µM

* * *

- System: SH-SY5Y cells
- Assay Text: ROS measurement (H2DCF-DA, flow cytometry) after H2O2 insult
- Assay type: cell-based, human
- Experimental Parameters: fluorescence relative to control = 1; H2O2 (100 μM) alone 6.31; hybrid 10 μM, 24 h + 3 h
- Description: H2DCF-DA is a molecule that easily diffuses into cells and, through intracellular esterases, is split into H2DCF following the loss of the acetate group. H2DCF remains trapped within cells and is oxidized by intracellular ROS to form the highly fluorescent DCF compound. Spectrofluorimetric quantification of the DCF probe, provides the content of the ROS in the cell. […]. Subsequently, the growth medium was replaced with a fresh phenol red-free medium containing H2DCF-DA (25 μM). […]
Recorded Metric: ROS measurement 10 μM

Could you tell me which ROS measurement 10 μM is on file for `O=C(OCCc1ccc(O)c(O)c1)C1CCN(Cc2ccccc2)CC1` ?
5.49

Could you tell me which ROS measurement 10 μM is on file for `CC(=O)Oc1ccc(CCOC(=O)C2CCN(Cc3ccccc3)CC2)cc1OC(C)=O` ?
2.66

Could you tell me which ROS measurement 10 μM is on file for `O=C(OCCc1ccc(O)cc1)C1CCN(Cc2ccccc2)CC1` ?
3.67

Could you tell me which ROS measurement 10 μM is on file for `O=C(OCCc1cc(O)c(O)cc1[N+](=O)[O-])C1CCN(Cc2ccccc2)CC1` ?
1.38

Could you tell me which ROS measurement 10 μM is on file for `COc1cc(CCOC(=O)C2CCN(Cc3ccccc3)CC2)ccc1OC(C)=O` ?
2.13

Could you tell me which ROS measurement 10 μM is on file for `CC(=O)Oc1ccc(CCOC(=O)C2CCN(Cc3ccccc3)CC2)cc1` ?
3.01

Could you tell me which ROS measurement 10 μM is on file for `COc1cc(CCOC(=O)C2CCN(Cc3ccccc3)CC2)ccc1O` ?
2.76

* * *

- Test system: SH-SY5Y cells
- Assay Text: ROS measurement (H2DCF-DA, flow cytometry) after H2O2 insult
- Format: cell-based, human
- Experimental Parameters: fluorescence relative to control = 1; H2O2 (100 μM) alone 6.31; hybrid 1 μM, 24 h + 3 h
Recorded Metric: ROS measurement 1 μM

Could you tell me which ROS measurement 1 μM is on file for O=C(OCCc1ccc(O)cc1)C1CCN(Cc2ccccc2)CC1 [HT4] ?
3.64

Could you tell me which ROS measurement 1 μM is on file for CC(=O)Oc1ccc(CCOC(=O)C2CCN(Cc3ccccc3)CC2)cc1 [HT4a] ?
2.94

Could you tell me which ROS measurement 1 μM is on file for O=C(OCCc1cc(O)c(O)cc1[N+](=O)[O-])C1CCN(Cc2ccccc2)CC1 [HT2] ?
1.12

Could you tell me which ROS measurement 1 μM is on file for COc1cc(CCOC(=O)C2CCN(Cc3ccccc3)CC2)ccc1OC(C)=O [HT3a] ?
1.58

Could you tell me which ROS measurement 1 μM is on file for O=C(OCCc1ccc(O)c(O)c1)C1CCN(Cc2ccccc2)CC1 [HT1] ?
5.47

Could you tell me which ROS measurement 1 μM is on file for CC(=O)Oc1ccc(CCOC(=O)C2CCN(Cc3ccccc3)CC2)cc1OC(C)=O [HT1a] ?
2.51

Could you tell me which ROS measurement 1 μM is on file for COc1cc(CCOC(=O)C2CCN(Cc3ccccc3)CC2)ccc1O [HT3] ?
2.18

* * *

- Assay Text: Oxygen radical absorbance capacity (ORAC) by fluorescence
- Experimental Parameters: means ± SEM of three independent observations; sample 10 μM in 7% RMCD solution
Recorded Metric: ORAC (µmol trolox l^−1)
Kindly answer with a numeric value in µmol trolox l^−1, unit omitted.

Could you tell me which ORAC is on file for O=C(OCCc1ccc(O)cc1)C1CCN(Cc2ccccc2)CC1 [HT4] ?
23.0

Could you tell me which ORAC is on file for O=C(OCCc1ccc(O)c(O)c1)C1CCN(Cc2ccccc2)CC1 [HT1] ?
21.2

Could you tell me which ORAC is on file for COc1cc(CCOC(=O)C2CCN(Cc3ccccc3)CC2)ccc1O [HT3] ?
45.2

Could you tell me which ORAC is on file for O=C(OCCc1cc(O)c(O)cc1[N+](=O)[O-])C1CCN(Cc2ccccc2)CC1 [HT2] ?
7.6

Could you tell me which ORAC is on file for OCCc1ccc(O)c(O)c1 [HT, hydroxytyrosol, reference compound] ?
38.8
